- assay.system: GPR139 (Homo sapiens, UniProt Q6DWJ6)
- test.details: GPR139 Agonist titration / agonist counterscreen assay (calcium detection, HEK-GPR139 cells)
- Format: cell-based
- Set-up: expressed in transfected cells; host or cells: HEK Aequorin cells, Maxcyte transient transfection
- measurement.context: agonist counterscreen of the antagonists; scientific notation, molarity; read-out: GRP139 Agonist activity EC50
pEC50: −log10 of the molar value.
endpoint.name: pEC50

• CC(=O)N1N=C(c2ccc(C)cc2)CC1c1ccccc1Cl (stereo not shown) = < 4.79
• Cc1cccc(-n2ccnc2SCC(=O)Nc2cccc(C)c2C)c1 = < 4.85
• COc1ccc(C(C(=O)NC(C)c2ccccc2)(c2ccccc2)c2ccccc2)cc1 (stereo not shown) = < 4.97
• COc1cc(C(=O)Nc2ccc(N3C(=O)c4ccc(Cl)cc4C3=O)c(C)c2)cc(OC)c1OC = < 4.97
• CC(C)C(=O)N1CCN(c2nc(-c3ccccc3)c3c(c2C#N)CCCC3)CC1 = < 4.95
• COc1ccc(OC)c(NC2=C(Cl)C(=O)N(c3ccccc3C)C2=O)c1 = < 4.85
• Cc1ccc(-n2cc(-c3ccccc3)nc2SCC(=O)Nc2cccc(C)c2C)cc1 = < 4.92
• COc1ccccc1CNC(=O)N1c2ccccc2Sc2ccccc21 = < 4.84
• CCOC(=O)C(CC)Oc1ccc2c(C)c(Cc3ccccc3)c(=O)oc2c1 (stereo not shown) = < 5.01
• CCCCCCOC(=S)SCC(=O)Nc1ccccc1 = < 4.92
• O=C(CS(=O)(=O)c1ccccc1)Nc1ccc(Oc2ccccc2)cc1 = < 4.85
• Cc1ccc(CNC(=O)CSc2nc3ccsc3c(=O)n2NC(=O)c2cccc(Br)c2)cc1 = < 4.92
• O=C(CCC(=O)OCc1ccc(Br)cc1)Nc1ccc(F)cc1 = < 4.85

====

- assay.system: GPR139 (Homo sapiens)
- test.details: GPR139 Agonist titration / agonist counterscreen assay (calcium detection, HEK-GPR139 cells)
- Type: cell-based
- Parameters: expressed in transfected cells; host or cells: HEK Aequorin cells, Maxcyte transient transfection
- measurement.context: GPR139 Agonist Activity; based on logD
Assign MET whenever Lipophilic Efficiency (logD) does not fall below 5; assign NOT MET whenever it does.

* COc1ccc(CCCC(=O)c2cccc(-c3ccc(OC)cc3)c2)cc1 | NOT MET
* COc1ccc(CCNC(=O)Nc2ccc3c(c2)CCCN3C(=O)C2CC2)cc1 | NOT MET
* O=C(CN1CCN(C/C=C/c2ccccc2)CC1)NCCCc1ccccc1 | NOT MET
* O=C(C1CC(Cc2cccc3ccccc23)=NO1)N1CCC(C(O)Cc2ccccc2)CC1 (centres unmarked) | NOT MET
* CCOc1nn(CC)cc1-c1nnc(SCc2ccc(C(=O)OC)cc2)n1C | NOT MET
* O=C(NNC(=O)C1CC1c1ccccc1)Nc1cccc(Cl)c1 (centres unmarked) | NOT MET
* Cc1onc(-c2ccccc2Cl)c1C(=O)NNC(=O)CSc1ccccc1[N+](=O)[O-] | NOT MET
* Cc1ccccc1CS(=O)(=O)CCC(=O)NC(C)c1ccccc1 (centres unmarked) | NOT MET
* Cc1cc(Cl)ccc1OCC(=O)NNC(=O)C1CC1c1ccccc1 (centres unmarked) | NOT MET
* O=C(Cn1ccc2ccccc21)NCCn1cnc(-c2ccccc2)cc1=O | MET
* O=C(CCC(=O)c1ccco1)NNC(=O)CN1CCCc2ccccc21 | MET
* Cc1c2cnn(CC(=O)NC(C)c3ccccc3)c(=O)c2c(C)n1Cc1ccc(F)cc1 (centres unmarked) | NOT MET
* COCC(=O)Oc1c(Sc2c(F)c(F)c(F)c(F)c2F)c(C)nn1C(C)(C)C | NOT MET
* Cc1ccc(C2(C)NC(=O)N(CC(=O)NCC(C)C)C2=O)cc1 (centres unmarked) | MET
* Cc1ccc(SCC(=O)NNC(=O)CCC(=O)c2cccs2)cc1 | NOT MET
* Cc1ccc(SCC(=O)NNC(=O)c2cccs2)cc1 | NOT MET
* Cc1cc(C(=O)NNC(=O)CNC(=O)Cc2cccc3ccccc23)c(C)o1 | MET
* O=C(Cn1cnc2ccccc21)NCCCn1ccc2ccccc21 | NOT MET
* CC(C)C1CC(=O)[C@@H]2C[C@@H](CC2C(=O)CC2CCOc3ccccc3C2)C2C=CC(=C2)CCC(=O)[C@@H](Cc2ccccc2)NC1=O (some centres unmarked) | MET
* COc1cccc(C(=O)NNC(=O)CCCOc2ccc(Cl)cc2Cl)c1 | MET
* O=c1nc(SCc2ccccc2F)c2c([nH]1)CCC2 | NOT MET
* Nc1ccc(C(=O)OCC(=O)NC2CCCc3ccccc32)cc1[N+](=O)[O-] (centres unmarked) | NOT MET
* CC1CCC(NC(=O)CCC(=O)N2CCSc3ccccc32)CC1 (centres unmarked) | MET
* CSc1cccc(NC(=O)C2C3C=CC4(O3)C2C(=O)N(C(C)c2ccccc2)C4C(=O)NC2CCCC(C)C2C)c1 (centres unmarked) | NOT MET
* CC(=O)c1cccc(C(C)(C)CC(=O)CNC(=O)c2ccccc2)c1 | MET
* O=C(CN1CCN(Cc2ccccc2F)C1=O)NCCc1ccc(Cl)cc1 | NOT MET
* Cc1cc(C)c(/C=C2/NC(=N)NC2=O)c(C)c1 | NOT MET
* CN1CC[C@H](Oc2cc(-c3cn[nH]c3)ccc2NC(=O)N(Cc2ccccc2)C2CC2)C1.O=C(O)C(F)(F)F.O=C(O)C(F)(F)F | NOT MET
* CCn1c(=O)n(CC(=O)NCC2COc3ccccc3O2)c(=O)c2ccccc21 (centres unmarked) | MET
* Cn1cnnc1SCc1ccc(F)c2ccccc12 | NOT MET
* Cc1cccc(OCC(=O)NNC(=O)C(C)Oc2ccc(Cl)cc2Cl)c1 (centres unmarked) | NOT MET
* O=C(Cn1cc2c(n1)CCCCC2)NCCCc1ccccc1 | NOT MET
* CC(C)(C)OC(=O)NNC(=O)COCc1ccc(Cl)c(Cl)c1 | NOT MET

====

- Tested on: parental HEK cells
- test.details: HEK parental Agonist Counterscreen Assay (non-transfected cells)
- Assay type: cell-based
- measurement.context: HEK Agonist Activity section
Assign class 1 whenever Lipophilic Efficiency (logP) does not fall below 2; assign class 0 whenever it does.

* Cc1cccc(-n2cnc3cc(C(=O)NCc4ccc5c(c4)OCO5)ccc32)c1 [SR-01000579592] | class 0
* CC1=NNC(=O)C1CC(=O)N/N=C/c1cccc2ccccc12 (centres unmarked) [SR-01000080433] | class 1
* N#C/C(=C/c1ccc(CNS(=O)(=O)c2ccccc2)o1)C(=O)NCCc1ccccc1 [SR-01000318079] | class 0
* Cc1cccc(NC(=O)Cn2ncc3c2-c2ccccc2OC3)n1 [SR-01000135038] | class 1
* COc1ccc(Cl)cc1C(=O)NNC(=O)CCc1ccc([N+](=O)[O-])cc1 [SR-01000054340] | class 1
* Cc1cc(Br)ccc1OCC(=O)NNC(=O)c1ccccc1C [SR-01000318521] | class 0
* C=C1CC(C)(c2ccc(OC)cc2)C(=C)C1CC(=O)CC1CCCCC1 (centres unmarked) [SR-01000918719] | class 1
* O=C(COc1ccc2ccccc2c1)NNC(=O)c1cccc([N+](=O)[O-])c1 [SR-01000362228] | class 1
* CCOc1ccccc1NC(=O)CN1C(=O)NC(C)(c2ccc(Cl)cc2Cl)C1=O (centres unmarked) [SR-01000072797] | class 0
* COCC(=O)Oc1c(Sc2c(F)c(F)c(F)c(F)c2F)c(C)nn1C(C)(C)C [SR-01000906953] | class 0
* Cc1c(Cl)c(C(F)(F)F)nn1CC(=O)NCc1ccc(Cl)cc1 [SR-01000429212] | class 0
* COc1ccc2c(CC(=O)NNC(=O)c3cc(-c4ccccc4)no3)coc2c1 [SR-01000074979] | class 1
* COCCn1c(C)c(C(=O)NC(C)CCc2ccccc2)c2nc3ccccc3nc21 (centres unmarked) [SR-01000918134] | class 0
* C=C(CCC)c1ccc(CCC2=NNC(c3ccccc3)N2C)cc1 (centres unmarked) [SR-01000299610] | class 1
* CCCCCc1cc(C2=CCC=C2)ccc1CC(=O)C1CCc2ccccc2C1 (centres unmarked) [SR-00000004451] | class 1

====

- assay.system: GPR139 (Homo sapiens, UniProt Q6DWJ6)
- Sequence (Q6DWJ6 1-353): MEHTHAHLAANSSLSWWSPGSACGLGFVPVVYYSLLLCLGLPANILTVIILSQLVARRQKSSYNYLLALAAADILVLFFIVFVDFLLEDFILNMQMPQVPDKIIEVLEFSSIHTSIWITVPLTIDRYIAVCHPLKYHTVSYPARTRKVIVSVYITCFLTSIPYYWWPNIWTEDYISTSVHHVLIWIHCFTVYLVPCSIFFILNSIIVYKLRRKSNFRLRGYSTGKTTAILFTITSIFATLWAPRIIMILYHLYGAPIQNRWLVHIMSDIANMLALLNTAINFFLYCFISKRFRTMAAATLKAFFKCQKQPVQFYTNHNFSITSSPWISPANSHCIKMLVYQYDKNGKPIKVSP
- test.details: GPR139 Agonist titration / agonist counterscreen assay (calcium detection, HEK-GPR139 cells)
- Type: cell-based
- Design: expressed in transfected cells; host or cells: HEK Aequorin cells, Maxcyte transient transfection
- measurement.context: GPR139 Agonist Activity; based on logP
Assign Criterion met whenever Lipophilic Efficiency (logP) does not fall below 5; assign Criterion not met whenever it does.

- CCn1c(=O)n(CC(=O)NCC2COc3ccccc3O2)c(=O)c2ccccc21 (centres unmarked): Criterion met
- CCn1c(C)nc2cc(C(=O)NNC(=O)Cc3cccc4ccccc34)ccc21: Criterion not met
- CC(C)(C)CN1CCNC(=O)C1CC(=O)NCCc1cnn(-c2ccccc2)c1 (centres unmarked): Criterion met
- CC(C)c1ccc(NC(=O)Cn2ncc3c2-c2ccccc2OC3)cc1: Criterion not met
- CC(C)(C)n1c2c(c(=O)[nH]c1=O)C(NC(=O)CCC1CCCCC1)(C(F)(F)F)C(=O)N2 (centres unmarked): Criterion not met
- CC1(c2ccc3ccccc3c2)NC(=O)C(CC(=O)NCc2ccco2)C1=O (centres unmarked): Criterion not met
- CC(C)C(C)(C#N)NC(=O)CSc1nnc(Cc2cccc3ccccc23)n1N (centres unmarked): Criterion not met
- Cc1ccccc1SCC(=O)NNC(=O)c1ccc(Br)s1: Criterion not met
- C=CCC(O)(CC=C)C(C)NC(=O)CCC1(Cc2ccc3ccccc3c2)CCC(=O)N1 (centres unmarked): Criterion not met
- COc1ccc(-c2nnn(CC(=O)NCCc3c[nH]c4ccccc34)n2)cc1OC: Criterion met
- O=C(CCc1nc2cccnc2n1Cc1cccs1)NCCc1cccs1: Criterion not met
- COc1cc(C(=O)NCCn2ccc3ccccc32)cc(OC)c1OC: Criterion not met
- CC1CCCC(NC(=O)CN2CCCN(Cc3ccc(F)cc3Cl)C2=O)C1C (centres unmarked): Criterion not met
- O=C(NCCn1ccc2ccccc21)c1cccc(Br)c1: Criterion not met
- O=C(CCC1CCCC1)NNC(=O)CSc1ccc(Cl)cc1: Criterion not met
- Cc1nc(CNC(=O)CCC2(Cc3cccc4ccccc34)CCC(=O)N2)cs1 (centres unmarked): Criterion not met
- C=C(C)CN(CC)C(=O)CN1C(=O)NC(C)(c2ccc3ccccc3c2)C1=O (centres unmarked): Criterion met
- COc1ccc(CCNC(=O)COc2ccc(Cl)cc2Cl)cc1: Criterion not met
- CC(NC(=O)COC(=O)c1ccccc1C(F)(F)F)c1ccccc1 (centres unmarked): Criterion not met
- O=C(NC1CC1)C1CC(Cc2cccc3ccccc23)=NO1 (centres unmarked): Criterion not met
- COc1ccc(C2(C)NC(=O)N(CC(=O)NC3CCCC3)C2=O)cc1 (centres unmarked): Criterion met
- O=C(NCCn1ccc2ccccc21)c1cccs1: Criterion not met
- COc1ccc(C2=NN(CC(=O)NCCCN(C)c3ccccc3)C(=O)CC2)cc1: Criterion met
- COc1ccc(C2(C)NC(=O)C(CC(=O)NCCc3ccccc3)C2=O)cc1 (centres unmarked): Criterion met
- O=C(O)c1ccccc1C(=O)c1cccc2ccccc12: Criterion not met
- O=C(Cn1nc(Cc2ccncc2)c2ccccc2c1=O)NC(O)CCc1ccccc1 (centres unmarked): Criterion not met
- CCN(CCCNC(=O)CN1CCC(Cc2ccccc2C)C1=O)c1cccc(C)c1 (centres unmarked): Criterion not met
- C=C1C(CC(=C)C2Cc3ccc4ccccc4c3C2)=CC(c2ccccc2)=CC1C (centres unmarked): Criterion not met
- COc1ccc(C(=O)NNC(=O)COc2ccc(Cl)cc2Cl)cc1OC: Criterion not met
- CC(NC(=O)Cn1cc(NC(=O)c2ccccc2F)cn1)c1ccccc1Cl (centres unmarked): Criterion not met
- CC(NC(=O)c1ccc2c(c1)N(Cc1ccccc1)C(=O)C[S+]2[O-])c1ccccc1 (centres unmarked): Criterion not met
- CCCCn1c(C)c(N(CC)C(=O)C(C)(C)Oc2ccc(C)cc2)c(=O)[nH]c1=O: Criterion met
- Cc1ccc(SCC(=O)Nc2nnc(-c3ccc(Cl)cc3)o2)cc1: Criterion not met
- CC1(c2ccc3c(c2)OCO3)NC(=O)N(CC(=O)Nc2ccccc2[N+](=O)[O-])C1=O (centres unmarked): Criterion met
